Test system: OVCAR-5 complex spheroids, viability
TEST DETAILS: Anticancer human tumor OVCAR-5 cell line growth inhibition;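 further: spheroids exposed to agents for seven days; 100% = DMSO vehicle control wells viability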
RUN CONDITIONS: second compound 0.316 µM; first compound 3.16 µM; active compounds read low
PROPERTY LABEL: viability, T/C (%)
Expressed in %, but write only the number.

Observe how each entry below is paired with its result.
{"columns": ["MOLECULE", "viability, T/C [%]"],
 "data": [
  ["CC1(C)CCC(CN2CCN(c3ccc(C(=O)NS(=O)(=O)c4ccc(NCC5CCOCC5)c([N+](=O)[O-])c4)c(Oc4cnc5[nH]ccc5c4)c3)CC2)=C(c2ccc(Cl)cc2)C1 + NC1CCC(NC2CC2c2ccccc2)CC1", 111],
  ["CC(C)c1c(-c2ccccc2)nc2c(C#N)c[nH]n2c1=O + NC1CCC(NC2CC2c2ccccc2)CC1", 118]
]}

Now look at this entry.
May I ask what viability, T/C has been recorded for O=C(c1cc(Cc2n[nH]c(=O)c3ccccc23)ccc1F)N1CCN(C(=O)C2CC2)CC1 + NC1CCC(NC2CC2c2ccccc2)CC1 ?
98.2
